# System: Mycobacterium tuberculosis
# assay name: Cornell - Phenotypic assay to identify agents that inhibit growth of Mycobacterium tuberculosis
# Format: functional
# Parameters: scale not given: direction of the effect not stated beside the values
# cond: 10 mM as filed; unlikely as a test dose
The whole screen tested about 53,000 compounds, of which about 900 (1.7%) showed an effect of 50% or more. The list comes from a sample in which strong results are over-represented; it also holds close analogues and randomly drawn compounds.
This listing pairs compounds with measured Percent Effect.
State just the number; it will be interpreted in %.

The following compounds have reported results that may help.
Entry Cc1nn(C)c2nc(N(CCN(C)C)C3CCCC3)sc12 has what Percent Effect? 19.35

Entry CC(C)Cc1cc(NC(=O)c2n[nH]c3ccccc23)n(C)n1 has what Percent Effect? 15.6

Entry CCn1nc(C)c(CNC(=O)c2cn(CC3CCCO3)nn2)c1C (centres undefined) has what Percent Effect? -30.41

Entry Cc1nc(CN2CCC3(CC2)NC(=O)CC3c2ccncc2)cs1.O=C(O)C(F)(F)F.O=C(O)C(F)(F)F (centres undefined) has what Percent Effect? 21.18

Entry Cc1ccc(-c2nnc(CN3CCn4c(nnc4C4CC4)C3)o2)cc1 has what Percent Effect? 2.899

From here, focus on the item given below.
Entry Cc1nn(C)c2nc(N(Cc3cnn(C)c3)C3CCCCC3)sc12 has what Percent Effect? 56.52

----------
This listing pairs compounds with measured Percent Effect.
# Test system: Mycobacterium tuberculosis
# assay name: Cornell - Phenotypic assay to identify agents that inhibit growth of Mycobacterium tuberculosis
# Assay type: functional
# Design: scale not given: direction of the effect not stated beside the values
# cond: 10 mM as filed; unlikely as a test dose
Out of some 53,000 compounds screened, about 900 (1.7%) showed an effect of 50% or more. Only a selection was taken, and strong results are over-represented in it overall.
State just the number; it will be interpreted in %.

The following compounds have reported results that may help.
Entry CCC1CCCCN1Cc1ncc(C(C)(C)C)o1 (configuration not stated) has what Percent Effect? -71.87

Entry O=C1CCC(C(=O)Nc2ccc(=O)n(Cc3ccccc3Cl)c2)N1 (configuration not stated) has what Percent Effect? -13.24

Entry Cc1nc(N)cc(C2(C)CCCNC2)n1 (configuration not stated) has what Percent Effect? 52.22

Entry O=C(NCC1CC1)C1CCC2(CCN(C(=O)c3ccoc3)CC2)O1 (configuration not stated) has what Percent Effect? -8.481

New cases:
Entry O=C(Nc1cnc(Oc2ccccc2)nc1)C1CC1 has what Percent Effect? 23.36

Entry CCCN(CCC)c1ncc(S(=O)(=O)c2ccc(OC)cc2)c(N)n1 has what Percent Effect? 26.01

Entry CN(C)c1nccc(N2CCO[C@H]3CN(Cc4ccsc4)C[C@H]32)n1.O=C(O)C(F)(F)F has what Percent Effect? 57.1

Entry O=C(CN1CCC(c2ccccc2)CC1)NCc1cc2n(n1)CCNC2 has what Percent Effect? -6.243

Entry Cc1cc(N(C)C)nc(C2(C)CCCNC2)n1 (configuration not stated) has what Percent Effect? -30.33

Entry Cc1nc(-c2ccccc2)nc2c1CCN(Cc1nccn1C)CC2 has what Percent Effect? 6.349

Entry O=C1CO[C@H]2CN(Cc3cccc4[nH]ccc34)C[C@@H]2N1C1CCOCC1 has what Percent Effect? 103.3

Entry COc1cc(CC2CC(C(N)=O)=NO2)cc2c1OCO2 (configuration not stated) has what Percent Effect? 13.11

Entry CN(Cc1cccnc1)[C@@H]1CN(Cc2ccccn2)[C@@H]2CCCO[C@H]12 has what Percent Effect? 51.65

Entry Cc1nc(CN2CC(CO)Oc3ccccc32)sc1C (configuration not stated) has what Percent Effect? 83.41

Entry Cc1csc(CN2CC(CO)Oc3ccccc32)n1 (configuration not stated) has what Percent Effect? 26.95

Entry Cc1ccc(C2CN(Cc3cccc4[nH]ccc34)CCO2)nc1 (configuration not stated) has what Percent Effect? -22.89

Entry O=C1CO[C@H]2CN(Cc3cccc(F)c3F)C[C@@H]2N1C1CCOCC1 has what Percent Effect? -21.84

Entry CCCc1cc(C(=O)NCCC2=CCCCC2)[nH]n1 has what Percent Effect? 32.79

Entry O=C(c1cc(-n2cccn2)ccn1)N(CC(F)(F)F)C1CCCC1 has what Percent Effect? 17.65

Entry Cc1ccccc1OCCCNC(=O)C1(C)CC(=O)N2C=CC=CC2=N1 (configuration not stated) has what Percent Effect? 54.27

Entry Cc1cc(CN(C)Cc2csc(-c3ccc(C(C)C)cc3)n2)no1 has what Percent Effect? 47.23

Entry CCn1nnnc1-c1cccc(NCc2nc(C)ccc2O)c1 has what Percent Effect? 4.577

Entry Cc1ccc(OCCCNC(=O)C2(C)CC(=O)N3C=CC=CC3=N2)cc1 (configuration not stated) has what Percent Effect? 45.74

Entry O=C(c1ccncc1)N1CCc2[nH]nc(Nc3ccccc3)c2C1 has what Percent Effect? -24.78

Entry COC(=O)C1=NOC(Cc2cc(OC)c3c(c2)OCO3)C1 (configuration not stated) has what Percent Effect? 104.6

Origin of measurements: ChEMBL document CHEMBL3988442
